Each recorded value in this set is attributed to the Human Domainome abundance scans (Beltran et al. 2025).

B1: Androgen receptor, residues 557 to 632; numbered along this chain, P10275 (parent)
chain: QKTCLICGDEASGCHYGALTCGSCKVFFKRAAEGKQKYLCASRNDCTIDKFRRKNCPSCRLRKCYEAGMTLGARKL

# Variants of: B1
# assay_method_text: abundance fitness (aPCA) (normalised: wild type 0, dead -1); higher = more abundant; growth selection in yeast, the domain comes from the species named
# measurement_setup: Homo sapiens
Consider the following variants; for each one, report its abundance fitness.
API note: the answer field is a bare number with no unit suffix.

For the variant V26S , what abundance fitness is on record? 0.038

For the variant A41C , what abundance fitness is on record? -0.18

For the variant K37F , what abundance fitness is on record? -0.331

For the variant D9Y , what abundance fitness is on record? -0.609

For the variant C21K , what abundance fitness is on record? -0.988

For the variant A73Y , what abundance fitness is on record? -0.166

For the variant K63P , what abundance fitness is on record? -0.949

For the variant I6L , what abundance fitness is on record? -0.789

For the variant K37T , what abundance fitness is on record? 0.01

For the variant Q1G , what abundance fitness is on record? 0.048

For the variant K35I , what abundance fitness is on record? -0.09

For the variant F27C , what abundance fitness is on record? -0.833

For the variant G72V , what abundance fitness is on record? -0.062

For the variant G13C , what abundance fitness is on record? -0.311

For the variant T3V , what abundance fitness is on record? -0.245

For the variant H15N , what abundance fitness is on record? -0.157

For the variant C21Q , what abundance fitness is on record? -0.564
